- targetSystem: rat brain FAAH (Rattus norvegicus, UniProt P97612)
- Sequence (P97612 1-579): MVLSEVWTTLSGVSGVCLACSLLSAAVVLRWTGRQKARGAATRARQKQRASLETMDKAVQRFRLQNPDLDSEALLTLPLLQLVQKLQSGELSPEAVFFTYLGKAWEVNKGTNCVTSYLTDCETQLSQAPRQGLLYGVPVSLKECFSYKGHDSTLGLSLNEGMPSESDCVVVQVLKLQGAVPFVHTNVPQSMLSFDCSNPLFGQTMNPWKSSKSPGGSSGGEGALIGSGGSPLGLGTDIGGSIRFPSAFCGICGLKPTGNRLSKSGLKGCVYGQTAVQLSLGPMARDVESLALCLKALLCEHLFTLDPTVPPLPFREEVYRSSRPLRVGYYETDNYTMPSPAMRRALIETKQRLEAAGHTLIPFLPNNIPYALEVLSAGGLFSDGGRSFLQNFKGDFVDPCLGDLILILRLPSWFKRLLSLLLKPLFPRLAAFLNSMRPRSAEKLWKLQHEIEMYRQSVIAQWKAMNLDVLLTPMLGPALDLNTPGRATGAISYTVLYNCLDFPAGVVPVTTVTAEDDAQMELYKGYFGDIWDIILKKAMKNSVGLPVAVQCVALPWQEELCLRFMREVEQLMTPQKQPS
readoutKind: pIC50
By convention, pIC50 is the negative base-10 log of a molar concentration.

Give the reported pIC50 for this molecule. CC(C)Cc1ccc(C(C)C(=O)Nc2ncccc2I)cc1 (stereo not drawn)
6.92

Give the reported pIC50 for this molecule. CC(C)Cc1ccc(C(C)C(=O)Nc2ccccc2O)cc1 (stereo not drawn)
5.07

Give the reported pIC50 for this molecule. Cc1ccccc1NC(=O)C(C)c1ccc(CC(C)C)cc1 (stereo not drawn)
5.70

Give the reported pIC50 for this molecule. Cc1cc(O)ccc1NC(=O)C(C)c1ccc(CC(C)C)cc1 (stereo not drawn)
6.46

Give the reported pIC50 for this molecule. Cc1cccnc1NC(=O)C1(c2ccc(CC(C)C)cc2)CC1
5.39

Give the reported pIC50 for this molecule. CC(C)Cc1ccc(C(C)C(=O)Nc2ccc(O)cc2)cc1 (stereo not drawn)
5.42
